# assayed system: hemagglutinin (HA) of influenza B/Brisbane/60/08 (Victoria) (influenza B virus)
# measurement protocol: cell-based or functional assay

{"binder": "SD3003 (VHH) VHH: EVQLVESGGGLVQPGGSLRLSCAASGFTFSTSWMSWLRQAPGKGLEWVSVINTDGGTYYADSVKGRFTISRDNSKDTLYLQMNSLRAEDTAVYYCAKDWGGPEPTRGQGTQVTVSS", "measurement units": "nM", "readout relation": "=", "VNA IC50": 101}
{"binder": "SD3086 (VHH) VHH: EVQLVESGGGLVQPGGSLRLSCAASGFTFSTSWMYWVRQAPGKGLEWVSVINTDGGTYYADSVKGRFTISRDNSKNTLYLQMNSLRAEDTAVYYCAKDWGGPEPTRGQGTLVTVSS", "measurement units": "nM", "readout relation": "=", "VNA IC50": 40}
{"binder": "SD3050 (VHH) VHH: EVQLVESGGGLVQPGGSLRLSCAASGLSLDTYAMSWFRQAPGKEREGITCISSGHGMTYYADSVKGRFTISRDNSKNTLYLQMNSLQPEDTARYYCATESRYYCSDNWPAPQRYIYWGQGTQVTVSS", "measurement units": "nM", "readout relation": ">", "VNA IC50": 1000}
{"binder": "SD3009 (VHH) VHH: EVQLLESGGGLVQPGGSLRLSCAASGFTLENKAMSWFRQAPGKEREGVLCISKSGSWTYYADSVKGRFTISRDNSKNTLYLQMNSLRAEDTAVYYCATTTAGGGLCWDGTTFSRLASSWGQGTQVTVSS", "measurement units": "nM", "readout relation": "=", "VNA IC50": 194}
{"binder": "SD3011 (VHH) VHH: EVQLLESGGGLVQPGGSLRLSCAASGFTLENKAIGWFRQAPGKEREGVLCISKSGSWTYYADSVKGRFTISRDNSKNTVYLQMNSLRAEDTAVYYCATTTAGGGLCWDGTTFSRLASSWGQGTQVTVSS", "measurement units": "nM", "readout relation": "=", "VNA IC50": 53}
{"binder": "SD3075 (VHH) VHH: EVQLVESGGGLVQPGGSLRLSCAASGLSLDTYAVGWFRQAPGKEREGVSCISSGHGITYYADSVKGRFTISTDNSKNTLYLQMNSLRAEDTAVYYCATESRYYCSDNWPAPQRYIYWGQGTLVTVSS", "measurement units": "nM", "readout relation": ">", "VNA IC50": 1000}
{"binder": "SD3103 (VHH) VHH: EVQLVESGGGLVQPGGSLRLSCAISGLSLDTYAVGWFRQAPGKEREGVSCISSGHGDTYYADSVKGRFTISTDNSKNTLYLQMNSLRAEDTAVYYCATESRYYCSDNWPAPQRYIYWGQGTLVTVSS", "measurement units": "nM", "readout relation": ">", "VNA IC50": 1000}
{"binder": "SD3053 (VHH) VHH: EVQLVESGGGLVQPGGSLRLSCAASGLSLDTYAMSWFRQAPGKEREGVSCISSGHGFTYYADSVKGRFTISRDNSKNTLYLQMNSLQPEDTARYYCATESRYYCSDNWPAPQRYIYWGQGTQVTVSS", "measurement units": "nM", "readout relation": ">", "VNA IC50": 1000}

Cited source: patent US20190359693A1
